Cited source: patent US9115137B2

Molecular target: human recombinant serotonin (5-Hydroxytryptamine) 5-HT2A receptor (Homo sapiens, UniProt P28223)
Construct: expressed in transfected cells; host or cells: CHO-K1 cells
Sequence (P28223 whole entry): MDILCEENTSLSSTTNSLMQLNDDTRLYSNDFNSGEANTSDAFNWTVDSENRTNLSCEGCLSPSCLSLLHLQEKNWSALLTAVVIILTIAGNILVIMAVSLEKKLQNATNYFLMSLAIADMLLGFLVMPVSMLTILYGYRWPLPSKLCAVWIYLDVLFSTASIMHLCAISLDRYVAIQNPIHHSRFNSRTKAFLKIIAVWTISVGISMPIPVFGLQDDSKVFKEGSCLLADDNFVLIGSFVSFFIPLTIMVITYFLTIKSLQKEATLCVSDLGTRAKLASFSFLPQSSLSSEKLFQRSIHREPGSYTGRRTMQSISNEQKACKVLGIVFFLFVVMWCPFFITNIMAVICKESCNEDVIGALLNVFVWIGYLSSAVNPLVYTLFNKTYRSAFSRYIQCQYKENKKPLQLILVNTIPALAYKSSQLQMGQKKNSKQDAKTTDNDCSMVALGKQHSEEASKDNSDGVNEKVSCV
Test: Serotonin 5-HT2A radioligand binding ([3H]Ketanserin)
Settings: compound at 1 μM; CHO-K1 cells; read-out: Serotonin (1 μM) 5-HT2A, percent inhibition of specific binding
attribute-measured: inhibition at 1 µM (%)
Lab book: enter the figure in %, no units written.

// worked examples, inhibition at 1 µM included
Note to self: inhibition at 1 µM recorded for `CN1CCc2c(c3cc(Cl)ccc3n2CCC(N)=O)C1` was 55

Note to self: inhibition at 1 µM recorded for `Cc1ccc2c(c1)c1c(n2CCNC(=O)c2ccncc2C)CCN(C)C1` was 30

Note to self: inhibition at 1 µM recorded for `CN1CCc2c(c3cc(Cl)ccc3n2CCCO)C1` was 66

Note to self: inhibition at 1 µM recorded for `Cc1ccc2c(c1)c1c(n2CCNC(=O)OCC(Cl)(Cl)Cl)CCN(C)C1` was 99

// switching to the query compound
Note to self: inhibition at 1 µM recorded for `CN1CCc2c(c3cc(Cl)ccc3n2CCO)C1` was 70
